Reported % inhibition by item:
tested_system: T1, recombinant human EGFR extracellular domain with 6xHis (human, UniProt P00533 25-645)
T1 construct: In-house produced; also called 6xHis EGFR ECD; soluble human EGFR ECD; not shown: 6xHis tag
experiment_notes: SPR competition, competitor Erbitux
Value and unit, in that order.

Answered examples (2):
binder	% inhibition
antibody 1030 (antibody, human IgG1, kappa, V domains shown, Chimeric IgG1 kappa) VH: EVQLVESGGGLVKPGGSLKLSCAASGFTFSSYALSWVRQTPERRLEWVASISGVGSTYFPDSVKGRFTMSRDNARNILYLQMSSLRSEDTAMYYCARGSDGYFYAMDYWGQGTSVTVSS VL: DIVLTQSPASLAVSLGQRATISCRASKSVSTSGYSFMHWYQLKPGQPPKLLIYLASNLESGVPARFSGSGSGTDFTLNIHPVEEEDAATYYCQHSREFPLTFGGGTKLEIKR	-1%
antibody 1308 (antibody, human IgG1, kappa, V domains shown, Chimeric IgG1 kappa) VH: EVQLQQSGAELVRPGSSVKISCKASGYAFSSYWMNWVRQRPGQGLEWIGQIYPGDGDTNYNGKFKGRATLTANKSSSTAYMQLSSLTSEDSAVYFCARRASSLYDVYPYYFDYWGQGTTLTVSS VL: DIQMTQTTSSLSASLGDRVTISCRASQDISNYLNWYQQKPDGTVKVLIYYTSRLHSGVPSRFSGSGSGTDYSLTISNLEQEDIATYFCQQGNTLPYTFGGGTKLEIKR	-6%

# % inhibition lookup, item antibody 1284 (antibody, human IgG1, kappa, V domains shown, Chimeric IgG1 kappa) VH: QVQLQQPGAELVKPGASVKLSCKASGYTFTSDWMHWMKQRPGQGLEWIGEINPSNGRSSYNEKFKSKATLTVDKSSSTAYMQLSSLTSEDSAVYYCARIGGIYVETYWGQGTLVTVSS VL: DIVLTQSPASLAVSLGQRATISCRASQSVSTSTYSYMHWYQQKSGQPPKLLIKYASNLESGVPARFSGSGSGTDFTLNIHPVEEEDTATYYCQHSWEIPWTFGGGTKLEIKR
-7%

The measured values listed here are drawn from patent US20110135636A1.
